In this section, each of the binders is paired with its reported Kd.
Biological target: T1, Human BCMA (human, UniProt Q02223 1-54, limits assumed)
T1 construct: Soluble analyte in SPR; construct not described; also called huBCMA; B-cell maturation antigen
T1 sequence (looked up): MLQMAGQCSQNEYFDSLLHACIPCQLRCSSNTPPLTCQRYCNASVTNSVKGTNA
Assay: SPR, IgG immobilised, 37 C
Property name: Kd (nM)

>>> observed_measurement("L3.PY/L3.KF/H3.AE (antibody, V domains shown, IgG) VH: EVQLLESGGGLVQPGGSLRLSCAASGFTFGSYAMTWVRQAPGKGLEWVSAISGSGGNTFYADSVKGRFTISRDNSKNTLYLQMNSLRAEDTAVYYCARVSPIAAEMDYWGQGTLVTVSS VL: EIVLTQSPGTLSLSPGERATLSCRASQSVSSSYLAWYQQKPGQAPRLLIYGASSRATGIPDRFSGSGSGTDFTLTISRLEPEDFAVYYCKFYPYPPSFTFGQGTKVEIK")
0.51
>>> observed_measurement("L3.PY/L1.FF/H2.DY (antibody, V domains shown, IgG) VH: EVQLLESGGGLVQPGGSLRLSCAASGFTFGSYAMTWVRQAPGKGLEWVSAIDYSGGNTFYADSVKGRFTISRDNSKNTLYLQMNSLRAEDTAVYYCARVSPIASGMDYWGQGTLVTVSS VL: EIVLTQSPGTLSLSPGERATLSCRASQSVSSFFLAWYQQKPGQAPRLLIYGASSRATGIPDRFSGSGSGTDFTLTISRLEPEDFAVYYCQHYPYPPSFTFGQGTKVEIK")
0.65
>>> observed_measurement("L3.PY/L1.AH/H3.YA (antibody, V domains shown, IgG) VH: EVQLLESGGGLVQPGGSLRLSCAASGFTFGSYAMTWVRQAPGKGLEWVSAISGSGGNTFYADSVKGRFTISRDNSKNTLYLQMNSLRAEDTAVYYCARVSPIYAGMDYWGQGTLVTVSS VL: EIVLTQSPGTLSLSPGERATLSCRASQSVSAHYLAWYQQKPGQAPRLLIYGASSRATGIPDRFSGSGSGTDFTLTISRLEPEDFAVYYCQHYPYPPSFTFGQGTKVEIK")
0.5

Hey, just so you know, these numbers are from patent US20160297884A1.
